# System: Italian ryegrass (Lolium multiflorum)
# Experiment Description: Test A postemergence
# Assay type: in vivo
# Conditions: Lolium multiflorum, post-emergence, 240 h, 125 g ai/ha, 0 to 100 scale, read-out: Plant response rating, Ryegrass, Italian
# Source text: […]
For each of the compounds below, state its pest or weed control at 125 g/ha.
In your response, put the unit directly after the numeric value.

Field: example entries. Status: answers known.
Chemical Structure: Fc1ccc(F)c(Oc2ncc(Cl)cn2)c1Oc1ncc(Cl)cn1
pest or weed control at 125 g/ha: 50%

Chemical Structure: N#Cc1cccc(Oc2ncc(Cl)cn2)c1Oc1cccc(Cl)c1
pest or weed control at 125 g/ha: 0%

Chemical Structure: N#Cc1cccc(Oc2ncc(Cl)cn2)c1Oc1ccc(Cl)cn1
pest or weed control at 125 g/ha: 80%

Attention now turns to another entry.
// query State, in one line, measured pest or weed control at 125 g/ha of `FCc1cccc(Oc2ncc(Cl)cn2)c1Oc1ncc(Cl)cn1`
// result 30%
